target: LK35.2-hPD-L1 cells / PE-labeled PD-1-Ig (Homo sapiens); construct: expressed in transfected cells; host or cells: LK35.2 mouse B cell line; experiment: LK35.2-hPD-L1 cell binding high-content screening assay; type: cell-based; settings: cluster symbol; cell line of CBA not given (LK35.2-hPD-L1 or 293T-hPD-L1); read-out: CBA IC50 cluster
Positions of bridges follow the written chain, without caps; N, C: chain ends. Non-standard residues stand in square brackets, D forms with d. Residues, ends and D or L forms follow the SMILES beside them. NMeNle = CCCC[C@H](NC)C(=O)O; NMeS = CN[C@@H](CO)C(=O)O; NMeA = CN[C@@H](C)C(=O)O; Sar = CNCC(=O)O
Readout Kind: IC50

Compound	Measured On	Reported Result
CCCC[C@H]1C(=O)N(C)[C@@H](CCCC)C(=O)N[C@@H](CCCNC(=N)N)C(=O)N[C@H](C(=O)NCC(N)=O)CSCC(=O)N[C@@H](Cc2ccccc2)C(=O)N(C)[C@@H](C)C(=O)N[C@@H](CC(N)=O)C(=O)N2CCC[C@H]2C(=O)N[C@@H](Cc2cnc[nH]2)C(=O)N[C@@H](CC(C)C)C(=O)N(C)CC(=O)N[C@@H](Cc2c[nH]c3ccccc23)C(=O)N(C)[C@@H](CO)C(=O)N[C@@H](Cc2c[nH]c3ccccc23)C(=O)N1C [Example 1078] ({CH2CO}-F[NMeA]NPHL[Sar]W[NMeS]W[NMeNle][NMeNle]RCG-NH2; thioether N-14)	LK35.2-hPD-L1 cells / PE-labeled PD-1-Ig (Homo sapiens)	> 74.3 nM

====

target: LK35.2-hPD-L1 cells / PE-labeled PD-1-Ig (Homo sapiens); construct: expressed in transfected cells; host or cells: LK35.2 mouse B cell line; assay: LK35.2-hPD-L1 cell binding high-content screening assay; assay type: cell-based; conditions: cluster symbol; cell line of CBA not given (LK35.2-hPD-L1 or 293T-hPD-L1); read-out: CBA IC50 cluster
Positions of bridges follow the written chain, without caps; N, C: chain ends. Non-standard residues stand in square brackets, D forms with d. Residues, ends and D or L forms follow the SMILES beside them. ξ: configuration not given here. Bip(2'-Me) = Cc1ccccc1-c1ccc(C[C@H](N)C(=O)O)cc1; NMeNle = CCCC[C@H](NC)C(=O)O; ξR = N=C(N)NCCCC(N)C(=O)O; NMeA = CN[C@@H](C)C(=O)O; ξP = O=C(O)C1CCCN1; ξC = NC(CS)C(=O)O; ξS = NC(CO)C(=O)O; Sar = CNCC(=O)O
Readout Kind: IC50

Molecule	Reported Result
CCCC[C@H]1C(=O)N(C)[C@@H](CCCC)C(=O)NC(CCCNC(=N)N)C(=O)NC(C(=O)NCC(N)=O)CSCC(=O)N[C@@H](Cc2ccccc2)C(=O)N(C)[C@@H](C)C(=O)N[C@@H](CC(N)=O)C(=O)N2CCCC2C(=O)N[C@@H](Cc2cnc[nH]2)C(=O)N[C@@H](CC(C)C)C(=O)N(C)CC(=O)N[C@@H](Cc2c[nH]c3ccccc23)C(=O)NC(CO)C(=O)N[C@@H](Cc2ccc(-c3ccccc3C)cc2)C(=O)N1C (stereo partly shown) [Example 1030] ({CH2CO}-F[NMeA]N[ξP]HL[Sar]W[ξS][Bip(2'-Me)][NMeNle][NMeNle][ξR][ξC]G-NH2; thioether N-14)	> 74.3 nM

====

Target: LK35.2-hPD-L1 cells / PE-labeled PD-1-Ig (Homo sapiens, UniProt Q9NZQ7)
Construct: expressed in transfected cells; host or cells: LK35.2 mouse B cell line
Sequence (Q9NZQ7 19-290): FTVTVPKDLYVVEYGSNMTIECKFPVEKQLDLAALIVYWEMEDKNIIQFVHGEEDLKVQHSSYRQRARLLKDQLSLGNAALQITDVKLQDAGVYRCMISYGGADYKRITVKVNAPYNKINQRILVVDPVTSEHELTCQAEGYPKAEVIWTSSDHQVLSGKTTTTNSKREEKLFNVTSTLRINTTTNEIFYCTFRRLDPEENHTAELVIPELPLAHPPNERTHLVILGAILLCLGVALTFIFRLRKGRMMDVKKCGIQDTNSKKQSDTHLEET
Test: LK35.2-hPD-L1 cell binding high-content screening assay
Format: cell-based
Details: cell binding assay, cell line not given; cluster symbol; read-out: CBA IC50 cluster
Procedure: LK35.2-hPD-L1 Cell Binding High-Content Screening Assay. Phycoerythrin (PE) was covalently linked to the Ig epitope tag of human PD-1-Ig and fluorescently-labeled PD-1-Ig was used for binding studies with a mouse B cell line (LK35.2) stably over-expressing human PD-L1 (LK35.2-hPD-L1). Briefly, 3×10^3 LK35.2-hPD-L1 cells were seeded into 384 well plates in 20 ul of RPMI supplemented with 10% fetal calf serum and cultured overnight. […]
pIC50: −log10 of the molar value. Positions of bridges follow the written chain, without caps; N, C: chain ends. Non-standard residues stand in square brackets, D forms with d. Residues, ends and D or L forms follow the SMILES beside them. ξ: configuration not given here. Phe(4-CH2NH2) = NCc1ccc(C[C@H](N)C(=O)O)cc1; Phe(2-F) = N[C@@H](Cc1ccccc1F)C(=O)O; Bta = N[C@@H](Cc1csc2ccccc12)C(=O)O; Hyp = O=C(O)[C@@H]1C[C@@H](O)CN1; NMeF = CN[C@@H](Cc1ccccc1)C(=O)O; NMeNle = CCCC[C@H](NC)C(=O)O; NMeA = CN[C@@H](C)C(=O)O; Dab = NCC[C@H](N)C(=O)O; ξhCys = NC(CCS)C(=O)O; ξC = NC(CS)C(=O)O; Sar = CNCC(=O)O

Compound	pIC50
CCCC[C@H]1C(=O)N(C)[C@@H](CCCC)C(=O)N[C@@H](CCCNC(=N)N)C(=O)NC(C(=O)NCC(N)=O)CSCC(=O)N[C@@H](Cc2ccc(O)cc2)C(=O)N(C)[C@@H](C)C(=O)N[C@@H](CC(N)=O)C(=O)N2CCC[C@H]2C(=O)N[C@@H](CC(N)=O)C(=O)N[C@@H](CC(C)C)C(=O)N2C[C@H](O)C[C@H]2C(=O)N[C@@H](Cc2c[nH]c3ccccc23)C(=O)N[C@@H](CO)C(=O)N[C@@H](Cc2c[nH]c3ccccc23)C(=O)N1C (some centres unmarked) [Example 9061] ({CH2CO}-Y[NMeA]NPNL[Hyp]WSW[NMeNle][NMeNle]R[ξC]G-NH2; thioether N-14)	8.33 to 9.80
CCCC[C@H]1C(=O)N(C)[C@@H](CCCC)C(=O)N[C@@H](CCCNC(=N)N)C(=O)NC(C(=O)NCC(N)=O)CCSCC(=O)N[C@@H](Cc2ccc(O)cc2)C(=O)N(C)[C@@H](C)C(=O)N[C@@H](CC(N)=O)C(=O)N2CCC[C@H]2C(=O)N[C@@H](Cc2cnc[nH]2)C(=O)N[C@@H](CC(C)C)C(=O)N2CCC[C@H]2C(=O)N[C@@H](Cc2c[nH]c3ccccc23)C(=O)N[C@@H](CO)C(=O)N[C@@H](Cc2csc3ccccc23)C(=O)N1C (some centres unmarked) [Example 9018] ({CH2CO}-Y[NMeA]NPHLPWS[Bta][NMeNle][NMeNle]R[ξhCys]G-NH2; thioether N-14)	< 7.13
CCCC[C@H]1C(=O)N(C)[C@@H](CCCC)C(=O)N[C@@H](CCCNC(=N)N)C(=O)N[C@H](C(=O)NCC(N)=O)CSCC(=O)N[C@@H](Cc2ccc(O)cc2)C(=O)N(C)[C@@H](C)C(=O)N[C@@H](CCN)C(=O)N2CCC[C@H]2C(=O)NCC(=O)N[C@@H](CCC(=O)O)C(=O)N2C[C@H](O)C[C@H]2C(=O)N[C@@H](Cc2c[nH]c3ccccc23)C(=O)N[C@@H](CO)C(=O)N[C@@H](Cc2c[nH]c3ccccc23)C(=O)N1C [Example 5129] ({CH2CO}-Y[NMeA][Dab]PGE[Hyp]WSW[NMeNle][NMeNle]RCG-NH2; thioether N-14)	7.14 to 8.32
CCCC[C@H]1C(=O)N(C)CC(=O)N[C@@H](CC(=O)O)C(=O)N[C@@H](C(C)C)C(=O)N(C)[C@@H](Cc2ccccc2)C(=O)N[C@@H](Cc2ccc(O)cc2)C(=O)N(C)CC(=O)N[C@@H](Cc2c[nH]c3ccccc23)C(=O)N[C@@H](Cc2ccc(O)cc2)C(=O)N[C@@H](Cc2ccc(CN)cc2)C(=O)N[C@H](C(=O)NCC(N)=O)CSCC(=O)N[C@@H](Cc2ccccc2)C(=O)N(C)[C@@H](Cc2ccccc2)C(=O)N1C [Example 3536] ({CH2CO}-F[NMeF][NMeNle][Sar]DV[NMeF]Y[Sar]WY[Phe(4-CH2NH2)]CG-NH2; thioether N-13)	7.14 to 8.32
CCCC[C@H]1C(=O)N(C)CC(=O)N[C@@H](CC(=O)O)C(=O)N[C@@H](C(C)C)C(=O)N(C)[C@@H](Cc2ccccc2)C(=O)N[C@@H](Cc2ccc(O)cc2)C(=O)N(C)CC(=O)N[C@@H](Cc2c[nH]c3ccccc23)C(=O)N[C@@H](Cc2ccc(O)cc2)C(=O)N[C@@H](CC(C)C)C(=O)N[C@H](C(=O)NCC(N)=O)CSCC(=O)N[C@@H](Cc2ccccc2F)C(=O)N(C)[C@@H](Cc2ccccc2)C(=O)N1C [Example 3568] ({CH2CO}-[Phe(2-F)][NMeF][NMeNle][Sar]DV[NMeF]Y[Sar]WYLCG-NH2; thioether N-13)	7.14 to 8.32
